- TARGET OR SYSTEM: FGF14:Nav1.6 C-tail complex (Homo sapiens, UniProt Q92915+Q9UQD0)
- Construct: polymerase chain reaction (PCR) amplification of the FGF14 open reading frame (nt 1–855); C-terminal fragment of Nav1.6 (amino acids 1763–1976) fused with CD4ΔC-tail (amino acids 1–395); expressed in transfected cells
- Sequence (Q92915 1-252 isoform Q92915-2): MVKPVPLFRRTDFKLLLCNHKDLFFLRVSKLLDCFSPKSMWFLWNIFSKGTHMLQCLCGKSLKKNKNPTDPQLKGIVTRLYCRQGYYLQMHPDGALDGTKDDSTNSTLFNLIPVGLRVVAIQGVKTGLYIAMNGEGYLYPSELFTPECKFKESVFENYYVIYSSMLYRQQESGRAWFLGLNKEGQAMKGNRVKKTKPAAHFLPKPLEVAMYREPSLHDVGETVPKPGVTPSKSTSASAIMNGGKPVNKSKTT
- Sequence (Q9UQD0 1763-1976 limits assumed): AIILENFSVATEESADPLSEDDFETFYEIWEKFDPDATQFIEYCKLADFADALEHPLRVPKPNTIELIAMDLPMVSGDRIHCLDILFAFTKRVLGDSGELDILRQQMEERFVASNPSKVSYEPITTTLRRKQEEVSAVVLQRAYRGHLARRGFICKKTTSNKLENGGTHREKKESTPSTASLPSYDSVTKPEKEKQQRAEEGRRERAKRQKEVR
- ASSAY COMMENT: Split-luciferase complementation assay (LCA) in Clone V double stable HEK293 cells
- Assay type: cell-based
- CONDITION DETAILS: CC_NCI screening; LCA, biological replicate Set 1; normalized to on-plate 0.3% DMSO controls
Where a name gives a salt, the structure may show the parent alone.
Record True whenever Split Luciferase Assay Z-score Set 1 is at -0.2 or higher; record False when lower.

Problem: Check this compound for Split Luciferase Assay Z-score Set 1 at or above -0.2: COc1cccc2c1C(=O)c1c(O)c3c(c(O)c1C2=O)C[C@@](O)(C(C)=O)C[C@@H]3O[C@H]1C[C@H](N)[C@H](O)[C@H](C)O1 [Daunorubicin hydrochloride]
Solution: False

Problem: Check this compound for Split Luciferase Assay Z-score Set 1 at or above -0.2: CO[C@@H]1[C@H](N(C)C(=O)c2ccccc2)C[C@H]2O[C@]1(C)n1c3ccccc3c3c4c(c5c6ccccc6n2c5c31)C(=O)NC4
Solution: False

Problem: Check this compound for Split Luciferase Assay Z-score Set 1 at or above -0.2: C[C@@H](Oc1cc(-c2cnn(C3CCNCC3)c2)cnc1N)c1c(Cl)ccc(F)c1Cl
Solution: False

Problem: Check this compound for Split Luciferase Assay Z-score Set 1 at or above -0.2: O=C(/C=C/c1ccc(CN(CCO)CCc2c[nH]c3ccccc23)cc1)NO
Solution: False

Problem: Check this compound for Split Luciferase Assay Z-score Set 1 at or above -0.2: Cc1ccc(Nc2nccc(N(C)c3ccc4c(C)n(C)nc4c3)n2)cc1S(N)(=O)=O
Solution: True

Problem: Check this compound for Split Luciferase Assay Z-score Set 1 at or above -0.2: CN(C)S(=O)(=O)c1ccc2c(c1)/C(=C/c1cc3c([nH]1)CCCC3)C(=O)N2
Solution: True

Problem: Check this compound for Split Luciferase Assay Z-score Set 1 at or above -0.2: CCc1cc(Nc2nccc(-c3c(-c4ccc(OC)c(C(=O)Nc5c(F)cccc5F)c4)nc4ccccn34)n2)c(OC)cc1N1CCC(N2CCN(S(C)(=O)=O)CC2)CC1 [GSK1904529A]
Solution: True

Problem: Check this compound for Split Luciferase Assay Z-score Set 1 at or above -0.2: CCNC(=O)c1noc(-c2cc(C(C)C)c(O)cc2O)c1-c1ccc(CN2CCOCC2)cc1
Solution: False

Problem: Check this compound for Split Luciferase Assay Z-score Set 1 at or above -0.2: COc1cc2c(cc1OC)[C@@H]1C(=O)c3ccc4c(c3O[C@@H]1CO2)C=CC(C)(C)O4
Solution: False

Problem: Check this compound for Split Luciferase Assay Z-score Set 1 at or above -0.2: O=C(/C=C/c1cccc(S(=O)(=O)Nc2ccccc2)c1)NO
Solution: True

Problem: Check this compound for Split Luciferase Assay Z-score Set 1 at or above -0.2: COc1cc2ncnc(Nc3ccc(F)c(Cl)c3)c2cc1OCCCN1CCOCC1
Solution: False

Problem: Check this compound for Split Luciferase Assay Z-score Set 1 at or above -0.2: CN(C)Cc1c(C(=O)NCCOc2ccc(C(=O)NO)cc2)oc2ccccc12
Solution: True

Problem: Check this compound for Split Luciferase Assay Z-score Set 1 at or above -0.2: Cc1nc(Nc2ncc(C(=O)Nc3c(C)cccc3Cl)s2)cc(N2CCN(CCO)CC2)n1 [DASATINIB]
Solution: False

Problem: Check this compound for Split Luciferase Assay Z-score Set 1 at or above -0.2: O=C(Nc1cccc(Nc2ncc(Br)c(NCCc3cnc[nH]3)n2)c1)N1CCCC1 [BX 912, reference compound]
Solution: False

Problem: Check this compound for Split Luciferase Assay Z-score Set 1 at or above -0.2: C=C(c1ccc(C(=O)O)cc1)c1cc2c(cc1C)C(C)(C)CCC2(C)C
Solution: True

Problem: Check this compound for Split Luciferase Assay Z-score Set 1 at or above -0.2: Cc1cn(-c2cc(NC(=O)c3ccc(C)c(Nc4nccc(-c5cccnc5)n4)c3)cc(C(F)(F)F)c2)cn1 [Nilotinib]
Solution: True

Problem: Check this compound for Split Luciferase Assay Z-score Set 1 at or above -0.2: CCn1c(-c2nonc2N)nc2cnc(Oc3cccc(NC(=O)c4ccc(OCCN5CCOCC5)cc4)c3)cc21 [GSK 269962A]
Solution: False

Problem: Check this compound for Split Luciferase Assay Z-score Set 1 at or above -0.2: COC(=O)c1ccc2c(c1)NC(=O)/C2=C(\Nc1ccc(N(C)C(=O)CN2CCN(C)CC2)cc1)c1ccccc1
Solution: True

Problem: Check this compound for Split Luciferase Assay Z-score Set 1 at or above -0.2: CN(C)C(=N)N=C(N)N
Solution: True

Problem: Check this compound for Split Luciferase Assay Z-score Set 1 at or above -0.2: Cn1cc(CNCC2CCN(c3ncc(C(=O)NO)cn3)CC2)c2ccccc21
Solution: True

Problem: Check this compound for Split Luciferase Assay Z-score Set 1 at or above -0.2: O=c1[nH]c(=O)n([C@H]2C[C@H](O)[C@@H](CO)O2)cc1F [Floxuridine, reference compound]
Solution: True

Problem: Check this compound for Split Luciferase Assay Z-score Set 1 at or above -0.2: CN(C)C/C=C/C(=O)Nc1cc2c(Nc3ccc(F)c(Cl)c3)ncnc2cc1O[C@H]1CCOC1 [BIBW2992]
Solution: False

Data credit: paper PMC6858373
